- ASSAYED TARGET: SGLT1 (Homo sapiens, UniProt P13866)
- Construct: endogenous in cells; host or cells: differentiated Caco-2 cell monolayers (ATCC)
- PROTOCOL DESCRIPTION: Glucose transport inhibitor cell screening assay, 5 mM D-glucose for 15 minutes (SGLT1 inhibition)
- Format: cell-based
- APPLIED CONDITIONS: assigned from % inhibition at 5 mM and 25 mM D-glucose in Caco-2 cells
ASSAY ENDPOINT: Class (assigned class of transporter inhibited)

Some solved cases for reference:
O=c1c(O[C@@H]2O[C@H](CO)[C@@H](O)[C@H](O)[C@H]2O)c(-c2ccc(O)c(O)c2)oc2cc(O)cc(O)c12 [Quercetin-3-glucoside]: SGLT1
O=c1c(-c2ccc(O)cc2)coc2cc(O[C@@H]3O[C@H](CO)[C@@H](O)[C@H](O)[C@H]3O)ccc12 [Daidzein-7-glucoside]: SGLT1
O=c1c(-c2ccc(O)cc2)coc2c([C@@H]3O[C@H](CO)[C@@H](O)[C@H](O)[C@H]3O)c(O)ccc12 [Daidze in-8-C-glucoside]: SGLT1
COc1cc(-c2[o+]c3cc(O)cc(O)c3cc2O[C@@H]2O[C@H](CO)[C@@H](O)[C@H](O)[C@H]2O)cc(OC)c1O [Malvidin-3-O-glucoside]: SGLT1
O=c1c(O[C@@H]2O[C@H](CO)[C@@H](O)[C@H](O)[C@H]2O)c(-c2ccc(O[C@@H]3O[C@H](CO)[C@@H](O)[C@H](O)[C@H]3O)c(O)c2)oc2cc(O)cc(O)c12 [Quercetin-3,4′-diglucoside]: None
O=c1cc(-c2ccc(O)c(O)c2)oc2cc(O[C@@H]3O[C@H](CO)[C@@H](O)[C@H](O)[C@H]3O)cc(O)c12 [Luteolin-7-glucoside]: SGLT1
OC[C@H]1O[C@@H](Oc2cc3c(O)cc(O)cc3[o+]c2-c2cc(O)c(O)c(O)c2)[C@H](O)[C@@H](O)[C@@H]1O [Delphinidin-3-glucoside]: SGLT1

Give SGLT1 (Homo sapiens, UniProt P13866) Class (assigned class of transporter inhibited) for the following molecule: COc1cc(-c2[o+]c3cc(O)cc(O)c3cc2O[C@@H]2O[C@H](CO)[C@H](O)[C@H](O)[C@H]2O)cc(OC)c1O [Malvidin 3-O-Galactoside]
None

---

Each entry below lists one item and its recorded % Glucose Transport inhibition 25 mM value.
- ASSAYED TARGET: GLUT2 (Homo sapiens, UniProt P11168)
- Construct: endogenous in cells; host or cells: differentiated Caco-2 cell monolayers (ATCC)
- Sequence (P11168 1-524): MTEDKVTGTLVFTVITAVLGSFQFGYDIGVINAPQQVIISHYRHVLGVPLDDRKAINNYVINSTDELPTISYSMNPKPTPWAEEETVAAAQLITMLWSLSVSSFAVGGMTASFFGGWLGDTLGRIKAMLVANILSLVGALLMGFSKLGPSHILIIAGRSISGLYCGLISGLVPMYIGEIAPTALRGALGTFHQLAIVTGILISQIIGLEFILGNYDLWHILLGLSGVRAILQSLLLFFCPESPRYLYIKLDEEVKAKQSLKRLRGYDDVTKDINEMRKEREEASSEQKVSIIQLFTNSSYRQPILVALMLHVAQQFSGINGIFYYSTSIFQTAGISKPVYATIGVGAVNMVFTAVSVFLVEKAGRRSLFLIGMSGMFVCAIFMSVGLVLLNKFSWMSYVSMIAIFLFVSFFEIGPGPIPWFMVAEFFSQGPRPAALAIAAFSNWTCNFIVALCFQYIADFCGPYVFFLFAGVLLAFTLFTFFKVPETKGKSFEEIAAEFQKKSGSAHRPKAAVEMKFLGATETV
- PROTOCOL DESCRIPTION: Glucose transport inhibitor cell screening assay, 25 mM D-glucose for 30 minutes (GLUT2 inhibition)
- Format: cell-based
- APPLIED CONDITIONS: differentiated Caco-2 monolayer, 30 minutes, active at 150 uM
Report only the number, with the unit % understood.

O=C1C[C@@H](c2ccc(O)c(O)c2)Oc2cc(O[C@@H]3O[C@H](CO)[C@@H](O)[C@H](O)[C@H]3O)cc(O)c21 [Eriodictiol-7-O-glucoside]: 4.98
COc1cc(-c2[o+]c3cc(O)cc(O)c3cc2O[C@@H]2O[C@H](CO)[C@@H](O)[C@H](O)[C@H]2O)cc(OC)c1O [Malvidin-3-O-glucoside]: 10.91
O=c1cc(-c2ccc(O)cc2)oc2c([C@@H]3O[C@H](CO)[C@@H](O)[C@H](O)[C@H]3O)c(O)cc(O)c12 [Apigenin-8-C-glucoside]: 5.76
COc1cc(-c2[o+]c3cc(O)cc(O)c3cc2O[C@@H]2O[C@H](CO)[C@H](O)[C@H](O)[C@H]2O)cc(OC)c1O [Malvidin 3-O-Galactoside]: 10.41
O=c1c(-c2ccc(O)cc2)coc2cc(O[C@@H]3O[C@H](CO)[C@@H](O)[C@H](O)[C@H]3O)ccc12 [Daidzein-7-glucoside]: 7.23

Answer with the recorded % Glucose Transport inhibition 25 mM of O=c1cc(-c2ccc(O)c(O)c2)oc2cc(O[C@@H]3O[C@H](CO)[C@@H](O)[C@H](O)[C@H]3O)cc(O)c12 [Luteolin-7-glucoside] only.
17.03

Input O=c1c(O)c(-c2ccc(O)cc2)oc2cc(O[C@@H]3O[C@H](CO)[C@@H](O)[C@H](O)[C@H]3O)cc(O)c12 [Kaempferol 7-O-glucoside] , output reported % Glucose Transport inhibition 25 mM.
14.42

Answer with the recorded % Glucose Transport inhibition 25 mM for the compound listed here: O=C1CC(c2ccc(O)cc2)Oc2cc(O[C@@H]3O[C@H](CO)[C@@H](O)[C@H](O)[C@H]3O)cc(O)c21 (stereo partly shown) [Naringenin-7-O-glucoside]
0.06

Using known records, supply % Glucose Transport inhibition 25 mM for Oc1cc(O)c2cc(O)c(-c3cc(O)c(O)c(O)c3)[o+]c2c1
15.86

State, in one line, measured % Glucose Transport inhibition 25 mM of O=c1cc(-c2ccc(O)cc2)oc2cc(OC3O[C@H](CO)[C@@H](O)[C@H](O)[C@H]3O)cc(O)c12 (stereo partly shown) [Apigenin-7-glucoside]
12.81

---

- ASSAYED TARGET: SGLT1 (Homo sapiens, UniProt P13866)
- Construct: endogenous in cells; host or cells: differentiated Caco-2 cell monolayers (ATCC)
- PROTOCOL DESCRIPTION: Glucose transport inhibitor cell screening assay, 5 mM D-glucose for 15 minutes (SGLT1 inhibition)
- Assay type: cell-based
- APPLIED CONDITIONS: differentiated Caco-2 monolayer; 5 mM D-glucose, 15 minutes; active at 300 uM
ASSAY ENDPOINT: inhibition at 300 µM (%)
Numbers only here, please. The scale is %.

Please review the entries below; each comes with its answer.
Oc1cc(O)c2cc(O)c(-c3ccc(O)c(O)c3)[o+]c2c1: 7.93
O=c1c(O)c(-c2ccc(O)c(O)c2)oc2cc(O)cc(O)c12: 80.8
O=c1cc(-c2ccc(O)c(O)c2)oc2cc(O)cc(O)c12: 77.4
O=c1cc(-c2ccc(O)cc2)oc2cc(O)cc(O)c12: 56.8

Supply recorded inhibition at 300 µM for O=c1c(O)c(-c2ccc(O)cc2)oc2cc(O)cc(O)c12 here.
26

---

- ASSAYED TARGET: SGLT1 (Homo sapiens, UniProt P13866)
- Construct: endogenous in cells; host or cells: differentiated Caco-2 cell monolayers (ATCC)
- Sequence (P13866 1-664): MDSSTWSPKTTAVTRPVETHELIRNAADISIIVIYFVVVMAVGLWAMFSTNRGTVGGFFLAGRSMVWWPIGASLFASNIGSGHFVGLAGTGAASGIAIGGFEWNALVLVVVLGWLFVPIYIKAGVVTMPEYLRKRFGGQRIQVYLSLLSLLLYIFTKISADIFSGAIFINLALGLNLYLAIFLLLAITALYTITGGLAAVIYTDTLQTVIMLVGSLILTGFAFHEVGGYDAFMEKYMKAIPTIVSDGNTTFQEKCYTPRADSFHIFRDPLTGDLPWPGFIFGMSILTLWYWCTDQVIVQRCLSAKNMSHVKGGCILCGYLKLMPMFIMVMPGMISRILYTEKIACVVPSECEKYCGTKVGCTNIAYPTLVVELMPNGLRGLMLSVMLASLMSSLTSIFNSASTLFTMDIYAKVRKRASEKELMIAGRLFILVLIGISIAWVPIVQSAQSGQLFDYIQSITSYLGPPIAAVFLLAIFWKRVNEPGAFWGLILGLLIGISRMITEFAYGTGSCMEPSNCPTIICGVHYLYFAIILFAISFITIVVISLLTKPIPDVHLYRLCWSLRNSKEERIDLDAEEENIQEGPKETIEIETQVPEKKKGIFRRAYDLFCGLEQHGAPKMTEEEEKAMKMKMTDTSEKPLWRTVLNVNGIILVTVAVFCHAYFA
- PROTOCOL DESCRIPTION: Glucose transport inhibitor cell screening assay, 5 mM D-glucose for 15 minutes (SGLT1 inhibition)
- Format: cell-based
- APPLIED CONDITIONS: differentiated Caco-2 monolayer; 5 mM D-glucose, 15 minutes; active at 300 uM
# label = rule met if inhibition at 300 µM >= 70% else rule not met

See these solved cases before continuing.
Oc1ccc(-c2[o+]c3cc(O)cc(O)c3cc2O)cc1 [Pelargonidin]: rule not met
COc1ccc([C@@H]2CC(=O)c3c(O)cc(O)cc3O2)cc1O [Hesperetin]: rule met
O=C1C[C@@H](c2ccccc2)Oc2cc(O)cc(O)c21 [Pinocembrin]: rule not met
O=c1c(-c2ccc(O)cc2)coc2cc(O)cc(O)c12 [Genistein]: rule not met

Proceed to the following item.
hey, is inhibition at 300 µM for this one >= 70%? O=c1c(O)c(-c2cc(O)c(O)c(O)c2)oc2cc(O)cc(O)c12 [Myricetin]
rule met
